molecular target: recombinant active human PAI-1 (Homo sapiens (Human), UniProt P05121); assay: Fluorometric PAI-1/uPA IC50 plate assay at pH 7.4; assay type: biochemical; details: physiologic buffer (40 mM HEPES, 100 mM NaCl, 0.05% Tween-20, 10% DMSO), read-out: PAI-1/uPA IC50 in buffer
Sequence (P05121 24-402): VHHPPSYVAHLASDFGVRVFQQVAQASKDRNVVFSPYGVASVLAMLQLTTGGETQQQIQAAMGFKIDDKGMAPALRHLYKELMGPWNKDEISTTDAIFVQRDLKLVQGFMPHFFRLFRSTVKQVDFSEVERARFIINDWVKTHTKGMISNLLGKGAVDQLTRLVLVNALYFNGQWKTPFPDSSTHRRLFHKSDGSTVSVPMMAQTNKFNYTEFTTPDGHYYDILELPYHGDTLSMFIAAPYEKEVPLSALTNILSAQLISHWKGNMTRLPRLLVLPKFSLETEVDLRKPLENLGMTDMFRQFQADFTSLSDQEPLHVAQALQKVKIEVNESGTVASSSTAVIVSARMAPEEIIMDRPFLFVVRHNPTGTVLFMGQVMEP
Experimental Endpoint: IC50 (µM)

// known answers, use as guide
Cc1ccc(F)cc1CNC(=O)C(=O)NN | 900
O=C(NCc1ccc(Cl)c(C(F)(F)F)c1)C(=O)NNS(=O)(=O)c1ccccc1 | 189
NNC(=O)C(=O)NCc1cc(F)cc(F)c1 | 337
O=C(NCc1ccc(Br)cc1)c1ccc(O)c(O)c1 | 164
O=C(NCc1cccc(C(F)(F)F)c1)c1ccc(O)c(O)c1 | 475
NNC(=O)C(=O)NCc1ccc(C(F)(F)F)cc1 | 112
COc1cc(CNC(=O)C(=O)NN)cc(OC)c1 | 4320
O=C(/C=C/c1ccc(O)c(O)c1)NCc1ccc(Cl)c(C(F)(F)F)c1 | 353

a. COc1cccc(CNC(=O)C(=O)NN)c1
b. O=C1Cc2cc(C(=O)CNCCNCC(=O)c3ccc4c(c3)CC(=O)N4)ccc2N1
c. Cc1cc(Cl)ccc1CNC(=O)c1n[nH]c(=O)o1
Sort (3 compounds) by IC50: min first. // ordering of labels required in reply b, c, a

P. O=C(CCc1ccc(O)c(O)c1)NCc1ccc(C(F)(F)F)cc1
Q. Cc1cc(C(=O)NCc2ccc(Cl)c(C(F)(F)F)c2)no1
Between P and Q , whose recorded IC50 is greater? Let me know the label of the one you choose. P

a. NNC(=O)C(=O)NCc1cc(F)c(F)c(F)c1
b. O=C(NCc1ccc(Cl)cc1)c1ccc(O)c(O)c1
c. NNC(=O)CCC(=O)NCc1ccc(F)c(C(F)(F)F)c1
d. O=C(NO)NCc1ccc(Cl)c(C(F)(F)F)c1
e. CCOC(=O)C(=O)NCc1cccc(C(F)(F)F)c1
Sort (5 compounds) by IC50: min first. // ordering of labels required in reply a, b, c, d, e

A. O=C(CCc1ccc(O)c(O)c1)NCc1cccc(C(F)(F)F)c1
B. CCCCCCCCN(S(=O)(=O)c1ccc(O)cc1)S(=O)(=O)c1cccc(O)c1
C. Cc1ccc(CNC(=O)C(=O)NN)cc1
D. NNC(=O)C(=O)NCc1ccccc1F
E. COC(=O)CCC(=O)NCc1ccc(F)c(C(F)(F)F)c1
Sort (5 compounds) by IC50: min first. // ordering of labels required in reply B, C, A, E, D

a. Cc1ccc(CNC(=O)C(=O)NN)cc1F
b. CONC(=O)C(=O)NCc1ccc(Cl)c(C(F)(F)F)c1
Between a and b , whose recorded IC50 is greater? Let me know the label of the one you choose. b

I. COc1ccc(-c2nc(-c3ccc4c(c3)CC(=O)N4)cs2)cc1OC
II. Cc1ccc(CNC(=O)c2n[nH]c(=O)o2)cc1F
III. NNC(=O)C(=O)NCc1ccc(Cl)cc1F
IV. CCCCCCCCN(S(=O)(=O)c1cccc(O)c1)S(=O)(=O)c1ccc(O)c(O)c1
V. NNC(=O)C(=O)NCc1cccc(F)c1
Sequence the entries by IC50, beginning with the highest number. // ordering of labels required in reply V, II, III, I, IV
(V: 2120 µM, II: 1160 µM, III: 465 µM, I: 205 µM, IV: 68 µM)

A. NNC(=O)C(=O)NCc1cccc(Cl)c1Cl
B. O=C(Cc1ccc(O)c(O)c1)NCc1ccc(Cl)c(C(F)(F)F)c1
For A and B , which recorded IC50 is lower? Let me know the label of the one you choose. A
(A: 173 µM, B: 888 µM)

P. O=C(CCc1ccc(O)c(O)c1)NCc1ccc(Cl)cc1
Q. CCCCCNC(=O)C(=O)NN
R. O=C1Cc2cc(S(=O)(=O)NCCc3ccccc3)ccc2N1 [C229, 2-oxo-N-phenethylindoline-5-sulfonamide]
S. O=C(NCc1ccc(Cl)c(C(F)(F)F)c1)c1ccc(O)c(O)c1
T. CON(C)C(=O)C(=O)NCc1ccc(Cl)c(C(F)(F)F)c1
Sort (5 compounds) by IC50: min first. // ordering of labels required in reply S, T, R, Q, P

---

target: recombinant active human PAI-1 (Homo sapiens (Human)); assay: Fluorometric PAI-1/uPA IC50 plate assay at pH 7.8; type: biochemical; settings: physiologic buffer
pIC50: −log10 of the molar value.
Experimental Endpoint: pIC50

O=S(=O)(Nc1ccc(-c2cccc(F)c2)cc1)c1ccc(O)c(O)c1 | 5.01
CCCCCCCCN(S(=O)(=O)c1ccc(O)cc1)S(=O)(=O)c1ccc(O)c(O)c1 | 5.36
CCCCCCc1ccc(N(S(=O)(=O)c2ccc(O)c(O)c2)S(=O)(=O)c2ccc(O)c(O)c2)cc1 | 6.92
O=S(=O)(c1ccc(O)c(O)c1)N(c1ccccc1)S(=O)(=O)c1ccc(O)c(O)c1 | 6.15

P. O=C1S/C(=C\c2ccc(O)c(O)c2)C(=O)N1Cc1cccc(-c2ccc(OC(F)(F)F)cc2)c1
Q. CCCCCCCCN(S(=O)(=O)c1cccc(O)c1)S(=O)(=O)c1cccc(O)c1
For P and Q , which recorded pIC50 is lower? Let me know the label of the one you choose. Q

---

biological target: recombinant active human PAI-1 (Homo sapiens (Human), UniProt P05121); experiment: Fluorometric PAI-1/uPA IC50 plate assay at pH 7.4; assay type: biochemical; details: physiologic buffer with 10% human plasma, read-out: PAI-1/uPA IC50 in 10% plasma buffer
pIC50: −log10 of the molar value.
Experimental Endpoint: pIC50

// known answers, use as guide
NNC(=O)C(=O)NCc1ccc(Br)cc1 [C260] | 3.28
O=C(NCc1ccc(Cl)c(C(F)(F)F)c1)c1n[nH]c(=O)o1 [C285] | 3.51
CCOC(=O)C(=O)NCc1ccc(Cl)c(C(F)(F)F)c1 [C256] | 3.67
NNC(=O)C(=O)NCc1cc(F)cc(F)c1 [C340] | 3.57

P. CCOC(=O)C(=O)NCc1ccc(Br)cc1 [C259]
Q. NNC(=O)CCC(=O)NCc1ccc(F)c(C(F)(F)F)c1 [C287]
For P and Q , which recorded pIC50 is lower? Let me know the label of the one you choose. P
(P: 3.28, Q: 3.52)

---

Target: recombinant active human PAI-1 (Homo sapiens (Human), UniProt P05121)
Assay: Fluorometric PAI-1/uPA IC50 plate assay at pH 7.4
Format: biochemical
Settings: physiologic buffer (40 mM HEPES, 100 mM NaCl, 0.05% Tween-20, 10% DMSO), read-out: PAI-1/uPA IC50 in buffer
Experimental: To determine the efficacy of various synthesized compounds as PAI-1 inhibitors, a fluorometric plate assay was carried out to measure the half maximal inhibitory concentration (IC50) of these compounds on recombinant active human PAI-1 in vitro. […] PAI-1 inhibitor compounds were dissolved in DMSO to a final concentration of (10-50 mM), depending upon solubility. […] The rate of AMC release by uPA (fluorescence) was measured at an excitation wavelength of 370 nm and an emission wavelength of 440 nm. […]
Experimental Endpoint: IC50 (µM)

// known answers, use as guide
Cc1cc(Cl)ccc1CNC(=O)C(=O)NO | 5490
NNC(=O)C(=O)NCc1cccc(C(F)(F)F)c1 | 136
COc1ccc(CCNC(=O)C(=O)NN)cc1OC | 2560

a. COc1ccc(CNC(=O)C(=O)NN)c(OC)c1
b. CCCCCCCCN(S(=O)(=O)c1cccc(O)c1)S(=O)(=O)c1cccc(O)c1
c. O=C(CCc1ccc(O)c(O)c1)NCc1cc(F)c(F)c(F)c1
d. O=C(CCc1ccc(O)c(O)c1)NCc1ccc(Cl)c(C(F)(F)F)c1
Sequence the entries by IC50, beginning with the highest number. // ordering of labels required in reply a, c, d, b

---

target: recombinant active human PAI-1 (Homo sapiens (Human)); test: Fluorometric PAI-1/uPA IC50 plate assay at pH 7.4; assay type: biochemical; details: physiologic buffer with 10% human plasma, read-out: PAI-1/uPA IC50 in 10% plasma buffer
Experimental Endpoint: IC50 (µM)

NNC(=O)C(=O)NCc1ccccc1F [C263] | 1360
O=C(Cc1ccc(O)c(O)c1)NCc1ccc(Cl)c(C(F)(F)F)c1 [C347] | 293
NNC(=O)C(=O)NCc1ccc(OC(F)(F)F)cc1 [C255] | 279

a. Cc1oncc1C(=O)NCc1ccc(Cl)c(C(F)(F)F)c1 [C279]
b. O=C(CCc1ccc(O)c(O)c1)NCc1ccc(Cl)cc1 [C359]
c. NNC(=O)C(=O)NCc1cccc(OC(F)(F)F)c1 [C268]
d. CON(C)C(=O)C(=O)NCc1ccc(Cl)c(C(F)(F)F)c1 [C328]
e. O=C(CCc1ccc(O)c(O)c1)NCc1ccc(Cl)c(C(F)(F)F)c1 [C330]
Sequence the entries by IC50, beginning with the highest number. // ordering of labels required in reply b, a, d, e, c
(b: 974 µM, a: 680 µM, d: 318 µM, e: 115 µM, c: 77 µM)

I. COc1cccc(CNC(=O)C(=O)NN)c1 [C295]
II. NNC(=O)C(=O)NCc1cccc(C(F)(F)F)c1 [C297]
Between I and II , whose recorded IC50 is greater? Let me know the label of the one you choose. I
(I: 736 µM, II: 87 µM)

1. O=C(NCc1cccc(C(F)(F)F)c1)c1ccc(O)c(O)c1 [C364]
2. NNC(=O)C(=O)NCc1cc(F)c(F)c(F)c1 [C304]
3. O=C(NCc1ccc(Cl)cc1)c1ccc(O)c(O)c1 [C361]
4. Cc1ccc(CNC(=O)C(=O)NN)cc1 [C362]
Sort (4 compounds) by IC50: min first. // ordering of labels required in reply 2, 4, 1, 3

P. Cc1cc(CNC(=O)C(=O)NN)ccc1F [C262]
Q. CC(C)=NNC(=O)C(=O)NCc1cc(F)cc(F)c1 [C313]
R. NNC(=O)CCC(=O)NCc1cccc(C(F)(F)F)c1 [C289]
Sort (3 compounds) by IC50: min first. // ordering of labels required in reply P, Q, R
